Quick reference for percent inhibition of cell viability at 20 µM among some molecules
System: A2780 cells
Assay: Cell Viability Assay (ATPlite 1step), A2780
Format: cell-based
Conditions: Homo sapiens; A2780, 20 uM compound, 72 hours; read-out: Cell Viability % inhibition A2780 (20 uM Cpd)
Please reply with the bare figure in % and do not write the unit itself.

| molecule | system | measurement |
| --- | --- | --- |
| O=C(Nc1ccc(-c2cccnc2)cn1)c1cncnc1 [Compound 14] | A2780 cells | 71.4 |
| Cc1ncc(C(=O)Nc2ccc(-c3cc(NC4CC4)cc(N4CCN(C)CC4)c3)cn2)cn1 [Compound 51] | A2780 cells | 76 |

Consider the additional molecule presented here.
### Prompt Give percent inhibition of cell viability at 20 µM for the following molecule: O=C(Nc1ccc(-c2ccccc2)cn1)c1cccnc1 [Compound 10]
### Response 95.2

====

Tested on: A2780 cells
Test: Cell Viability Assay (ATPlite 1step), A2780
Assay type: cell-based
Details: Homo sapiens; A2780, 4 uM compound, 72 hours; read-out: Cell Viability % inhibition A2780 (4 uM Cpd)
reported property: percent inhibition of cell viability at 4 µM (%)
Answer format: numeric, % implied, no suffix.

| compound smiles | measurement |
| --- | --- |
| CC(C)(C)c1cccc(-c2ccc(NC(=O)c3cncnc3)nc2)c1 | 71.1 |

### Prompt Provide A2780 cells percent inhibition of cell viability at 4 µM reading for "Cc1ncc(C(=O)Nc2ccc(-c3cccc(C4CC4)c3)cn2)cn1" .
### Response 71.5

### Prompt Give percent inhibition of cell viability at 4 µM only, for "O=C(Nc1ccc(-c2cccc(NC3CC3)c2)cn1)c1cccnc1" , using A2780 cells data.
### Response 71.9

### Prompt Fetch value of percent inhibition of cell viability at 4 µM on A2780 cells for "COc1ccc(Cl)cc1-c1ccc(NC(=O)c2cncnc2)nc1" .
### Response 70.4

====

System: A2780 cells
Test: Cell Viability Assay (ATPlite 1step), A2780
Assay type: cell-based
Conditions: Homo sapiens; A2780, 20 uM compound, 72 hours; read-out: Cell Viability % inhibition A2780 (20 uM Cpd)
Values of percent inhibition of cell viability at 20 µM strictly less than 80% map to True, and values of at least 80% map to False.

| compound smiles | system | group |
| --- | --- | --- |
| Cc1ccc(C(=O)Nc2ccc(-c3cccc(OC4CC4)c3)cn2)cn1 | A2780 cells | False |
| O=C(Nc1ccc(-c2cccc(NC3CC3)c2)cn1)c1cccnc1 | A2780 cells | True |
| Cc1ncc(C(=O)Nc2ccc(-c3ccccc3)cn2)cn1 | A2780 cells | False |

### Prompt Hello, I'm reviewing records and need to know if percent inhibition of cell viability at 20 µM of "O=C(Nc1ccc(-c2ccc(Cl)cc2)cn1)c1cncnc1" is below 80%. Could you check?
### Response True

====

Tested on: porcine neuronal tubulin
Test: Tubulin Polymerization Assay
Assay type: biochemical
Settings: porcine tubulin 2.0 mg/ml, 37° C., fluorescence; read-out: IC50 (tubulin polymerization, from Vmax)
Method: Tubulin Polymerization Assay The Tubulin Polymerization Assay uses porcine neuronal tubulin and measurements are based on fluorescence enhancement due to the incorporation of a fluorescent reporter into microtubules as polymerization occurs. […] Procedure: All compounds dilutions (in DMSO) were prepared prior to the following steps. A Molecular Devices M2 plate reader was set to 37° C. […]
reported property: pIC50
For clarity, pIC50 is expressed as the negative log10 of concentration in mol/L.

Illustrative cases are given below, each with its answer.
| compound | measurement |
| --- | --- |
| Cc1ccc(C(=O)Nc2ccc(-c3cccc(C4COC4)c3)cn2)cn1 [Compound 44] | 6.52 |
| Cc1ncc(C(=O)Nc2ncc(-c3cccc(C4CC4)c3)cc2F)cn1 [Compound 67] | 5.62 |
| Cc1ncc(C(=O)Nc2ncc(-c3cccc(S(=O)(=O)C4CC4)c3)cc2F)cn1 [Compound 70] | 8.00 |
| O=C(Nc1ccc(-c2ccccc2)cn1)c1cncnc1 [Compound 1] | 5.85 |

### Prompt Using known records, supply pIC50 for CC[C@]1(O)C[C@H]2CN(CCc3c([nH]c4ccccc34)[C@@](C(=O)OC)(c3cc4c(cc3OC)N(C=O)[C@H]3[C@@](O)(C(=O)OC)[C@H](OC(C)=O)[C@]5(CC)C=CCN6CC[C@]43[C@@H]65)C2)C1 [Vincristine, reference compound]
### Response 6.17

### Prompt Give the reported pIC50 for this compound. O=C(Nc1ccc(-c2cccc(Cl)c2)cn1)c1cncnc1 [Compound 3]
### Response 5.84

### Prompt Tell me its pIC50 given Cc1ncc(C(=O)Nc2ncc(-c3cccc(OC4CC4)c3)cc2F)cn1 [Compound 66] as the entry.
### Response 5.42

### Prompt Determine from records and report pIC50 for Cc1ncc(C(=O)Nc2ccc(-c3ccsc3)cn2)cn1 [Compound 61]
### Response 6.59

====

percent inhibition of cell viability at 4 µM overview
Tested on: A2780 cells
Experiment: Cell Viability Assay (ATPlite 1step), A2780
Assay type: cell-based
Conditions: Homo sapiens; A2780, 4 uM compound, 72 hours; read-out: Cell Viability % inhibition A2780 (4 uM Cpd)
Could you give me the number in %? Just the number is fine.

| compound smiles | measurement |
| --- | --- |
| CN1CCN(c2cccc(-c3ccc(NC(=O)c4cncnc4)nc3)c2)CC1 | 51.6 |
| O=C(Nc1ccc(-c2cccc(C3COC3)c2)cn1)c1cccnc1 | 82.6 |
| Cc1ncc(C(=O)Nc2ncc(-c3cccc(C4CC4)c3)cc2F)cn1 | 87.1 |
| Cc1ncc(C(=O)Nc2ccc(-c3cc(N4CCN(C)CC4)cc(S(=O)(=O)C4CC4)c3)cn2)cn1 | 16.9 |
| Cc1ncc(C(=O)Nc2ncc(-c3cc(Cl)cc(N4CCNCC4)c3)cc2F)cn1 | -6.4 |
| O=C(Nc1ccc(-c2ccccc2)cn1)c1cncnc1 | 84.2 |
| O=C(Nc1ccc(-c2ccoc2)cn1)c1cncnc1 | 83.2 |
| Nc1ncc(C(=O)Nc2ccc(-c3ccccc3)cn2)cn1 | 92.5 |
| O=C(Nc1ccc(-c2cccc(C3COC3)c2)cn1)c1cncnc1 | 74.7 |

// below: percent inhibition of cell viability at 4 µM requested for another molecule
### Prompt GET percent inhibition of cell viability at 4 µM where system = A2780 cells and item = "COc1ccc(-c2ccc(NC(=O)c3cncnc3)nc2)cc1Cl"
### Response 69

====

System: PC3 cells
Experiment: Cell Viability Assay (ATPlite 1step), PC3
Assay type: cell-based
Settings: Homo sapiens, PC-3; PC3, 20 uM compound, 72 hours; read-out: Cell Viability % inhibition PC3 (20 uM Cpd)
Reported values of percent inhibition of cell viability at 20 µM for individual entries
Give just the number in %; leave the unit off.

// solved cases for percent inhibition of cell viability at 20 µM follow
| compound | system | measurement |
| --- | --- | --- |
| CNC(=O)c1cccc(-c2ccc(NC(=O)c3cncnc3)nc2)c1 [Compound 17] | PC3 cells | 81.7 |
| Cc1ncc(C(=O)Nc2ccc(-c3cccc(NC4CCNC4)c3)cn2)cn1 (centres unmarked) [Compound 55] | PC3 cells | 82.2 |
| Cc1ncc(C(=O)Nc2ncc(-c3cccc(C4CC4)c3)cc2F)cn1 [Compound 67] | PC3 cells | 61.6 |
| CN1CCN(c2cccc(-c3ccc(NC(=O)c4cncnc4)nc3)c2)CC1 [Compound 34] | PC3 cells | 30.3 |
| Cc1ccc(C(=O)Nc2ccc(-c3cccc(N4CCN(C)CC4)c3)cn2)cn1 [Compound 37] | PC3 cells | 61 |
| O=C(Nc1ccc(-c2ccccc2)cn1)c1cccnc1 [Compound 10] | PC3 cells | 87.3 |
| Cc1ncc(C(=O)Nc2ccc(-c3ccsc3)cn2)cn1 [Compound 61] | PC3 cells | 70.6 |
| O=C(Nc1ccc(-c2cccc(C3CC3)c2)cn1)c1cnc(O)nc1 [Compound 60] | PC3 cells | 80.6 |
| COc1ncc(C(=O)Nc2ccc(-c3cccc(OC4CC4)c3)cn2)cn1 [Compound 57] | PC3 cells | 89 |
| O=C(Nc1ccc(-c2cccc(NC3CC3)c2)cn1)c1cccnc1 [Compound 32] | PC3 cells | 57.6 |

Please examine the following record next.
### Prompt Look up and report measured percent inhibition of cell viability at 20 µM for this entry: O=C(Nc1ccc(C2CC2)cn1)c1cncnc1 [Compound 6]
### Response 29.9

====

Test system: A2780 cells
Assay: Cell Viability Assay (ATPlite 1step), A2780
Assay type: cell-based
Conditions: Homo sapiens; A2780, 20 uM compound, 72 hours; read-out: Cell Viability % inhibition A2780 (20 uM Cpd)
In plain terms, low percent inhibition of cell viability at 20 µM, meaning strictly below 80%, gives TRUE, and everything else gives FALSE.

Below, 4 molecules whose answers are already recorded.
| molecule | group |
| --- | --- |
| Cc1ncc(C(=O)Nc2ccc(-c3cc(N4CCN(C)CC4)cc(S(=O)(=O)C4CC4)c3)c(C)n2)cn1 [Compound 50] | TRUE |
| Cc1ncc(C(=O)Nc2ncc(-c3cc(Cl)cc(N4CCNCC4)c3)cc2F)cn1 [Compound 54] | TRUE |
| O=C(Nc1ccc(-c2ccccc2Cl)cn1)c1cncnc1 [Compound 4] | FALSE |
| O=C(Nc1ccc(-c2ccco2)cn1)c1cncnc1 [Compound 20] | FALSE |

Now, please, on to the next molecule.
### Prompt Does this molecule meet the criterion percent inhibition of cell viability at 20 µM < 80%? Cc1ncc(C(=O)Nc2ccc(-c3cccc(C4COC4)c3)cn2)cn1 [Compound 42]
### Response FALSE
